# tested.system: human CSNK1A1 (Homo sapiens (Human), UniProt P48729)
# Sequence (P48729 whole entry): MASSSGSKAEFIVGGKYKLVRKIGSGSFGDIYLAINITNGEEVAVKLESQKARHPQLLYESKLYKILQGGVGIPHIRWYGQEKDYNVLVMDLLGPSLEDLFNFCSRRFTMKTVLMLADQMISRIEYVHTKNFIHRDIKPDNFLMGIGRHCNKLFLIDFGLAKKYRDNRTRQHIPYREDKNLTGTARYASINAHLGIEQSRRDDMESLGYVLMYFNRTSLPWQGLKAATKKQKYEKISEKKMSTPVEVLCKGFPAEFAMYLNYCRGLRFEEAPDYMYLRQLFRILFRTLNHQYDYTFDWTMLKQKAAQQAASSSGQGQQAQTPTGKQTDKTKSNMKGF
# assay.protocol: CSNK1A1 High ATP Assay (ADP-Glo, 1 mM ATP)
# Type: biochemical
# test.conditions: read-out: CSNK1A1 high ATP assay IC50 [mol/l] (median)
pIC50: −log10 of the molar value.
measured.parameter: pIC50

molecule	numeric.readout
CN1CCc2[nH]c(-c3ccnc(NC(=O)Cc4ccc(C(=O)N5CCNCC5)cc4)c3)c(Nc3ccccc3)c2C1=O	7.13
COC(=O)c1ccc(CC(=O)Nc2cc(-c3[nH]c4c(c3Nc3ccccc3)C(=O)N(C)CC4)ccn2)cc1	7.02
O=C(Cc1ccc(F)cc1)Nc1cc(-c2[nH]c3c(c2Nc2ccccc2)C(=O)NC(C(F)(F)F)C3)ccn1 (racemic)	7.17
CN(C)CCNC(=O)c1ccc(CC(=O)Nc2cc(-c3[nH]c4c(c3Nc3ccccc3)C(=O)N(C)CC4)ccn2)cc1	7.31
CC1(C)Cc2[nH]c(-c3ccnc(NC(=O)C(CN)c4ccc(F)cc4)c3)c(Nc3ccccc3)c2C(=O)N1 (racemic) [Example 139]	7.38
CC1(C)Cc2[nH]c(-c3ccnc(NC(=O)Cc4ccncc4)c3)c(Nc3ccccc3)c2C(=O)N1	7.59
O=C(Cc1ccc(F)cc1)Nc1cc(-c2[nH]c3c(c2Nc2ccccc2Cl)C(=O)NCC3)ccn1	7.43

---

Recorded IC50 values (human CSNK1D (Homo sapiens (Human))) are given below.

compound	tested.system	IC50, µM
CC1Cc2[nH]c(-c3ccnc(NC(=O)C(CC(F)F)c4ccc(F)cc4)c3)c(Nc3ccccc3F)c2C(=O)N1C (single isomer, unassigned; (+)) [Example 105]	human CSNK1D (Homo sapiens (Human))	0.00545
CN1CCc2[nH]c(-c3ccnc(NC(=O)Cc4ccccc4)c3)c(Nc3ccccc3)c2C1=O [Example 2]	human CSNK1D (Homo sapiens (Human))	0.00541
O=C1NC2(CCC2)Cc2[nH]c(-c3ccnc(NC(=O)C(CC(F)F)c4ccc(F)cc4)c3)c(Nc3ccccc3)c21 (racemic) [Example 54]	human CSNK1D (Homo sapiens (Human))	0.0055
CC1Cc2[nH]c(-c3ccnc(NC(=O)C(CC(F)F)c4ccc(F)cc4)c3)c(Nc3ccccc3F)c2C(=O)N1C (single isomer, unassigned; (+)) [Example 103]	human CSNK1D (Homo sapiens (Human))	0.0173
CC1Cc2[nH]c(-c3ccnc(NC(=O)C(CC(F)F)c4ccc(F)cc4)c3)c(Nc3ccccc3F)c2C(=O)N1C (single isomer, unassigned; (-)) [Example 107]	human CSNK1D (Homo sapiens (Human))	0.0592
CC(C(=O)Nc1cc(-c2[nH]c3c(c2Nc2ccccc2)C(=O)N(CC(C)(C)O)CC3)ccn1)c1ccc(F)cc1 (stereo not drawn) [Example 24]	human CSNK1D (Homo sapiens (Human))	0.064
CN1C(=O)c2c([nH]c(-c3ccnc(NC(=O)Cc4ccc(F)cc4)c3)c2Nc2ccccc2)CC1(C)C [Example 44]	human CSNK1D (Homo sapiens (Human))	0.0107
Cc1ccccc1Nc1c(-c2ccnc(NC(=O)C(CC(F)F)c3ccc(F)cc3)c2)[nH]c2c1C(=O)NC(C)(C)C2 (single isomer, unassigned; enantiomer 1) [Example 136]	human CSNK1D (Homo sapiens (Human))	0.0453
CN1CCc2[nH]c(-c3ccnc(NC(=O)C(CC(F)F)c4ccc(F)cc4)c3)c(Nc3ccccc3)c2C1=O (racemic) [Example 61]	human CSNK1D (Homo sapiens (Human))	0.00768
CC1(C)Cc2[nH]c(-c3ccnc(NC(=O)C(CC(F)F)c4ccc(F)cc4)c3)c(Nc3cccc(F)n3)c2C(=O)N1 (racemic) [Example 128]	human CSNK1D (Homo sapiens (Human))	0.0114
CCC(C(=O)Nc1cc(-c2[nH]c3c(c2Nc2ccccc2)C(=O)N(C)CC3)ccn1)c1ccc(F)cc1 (single isomer, unassigned; (-)) [Example 76]	human CSNK1D (Homo sapiens (Human))	0.0175
CN1CCc2[nH]c(-c3ccnc(NC(=O)Cc4ccc(F)cc4F)c3)c(Nc3ccccc3)c2C1=O [Example 82]	human CSNK1D (Homo sapiens (Human))	0.00552
